assayed.target: FGFR-1 (Homo sapiens, UniProt P11362)
Sequence (P11362 22-822, species assumed): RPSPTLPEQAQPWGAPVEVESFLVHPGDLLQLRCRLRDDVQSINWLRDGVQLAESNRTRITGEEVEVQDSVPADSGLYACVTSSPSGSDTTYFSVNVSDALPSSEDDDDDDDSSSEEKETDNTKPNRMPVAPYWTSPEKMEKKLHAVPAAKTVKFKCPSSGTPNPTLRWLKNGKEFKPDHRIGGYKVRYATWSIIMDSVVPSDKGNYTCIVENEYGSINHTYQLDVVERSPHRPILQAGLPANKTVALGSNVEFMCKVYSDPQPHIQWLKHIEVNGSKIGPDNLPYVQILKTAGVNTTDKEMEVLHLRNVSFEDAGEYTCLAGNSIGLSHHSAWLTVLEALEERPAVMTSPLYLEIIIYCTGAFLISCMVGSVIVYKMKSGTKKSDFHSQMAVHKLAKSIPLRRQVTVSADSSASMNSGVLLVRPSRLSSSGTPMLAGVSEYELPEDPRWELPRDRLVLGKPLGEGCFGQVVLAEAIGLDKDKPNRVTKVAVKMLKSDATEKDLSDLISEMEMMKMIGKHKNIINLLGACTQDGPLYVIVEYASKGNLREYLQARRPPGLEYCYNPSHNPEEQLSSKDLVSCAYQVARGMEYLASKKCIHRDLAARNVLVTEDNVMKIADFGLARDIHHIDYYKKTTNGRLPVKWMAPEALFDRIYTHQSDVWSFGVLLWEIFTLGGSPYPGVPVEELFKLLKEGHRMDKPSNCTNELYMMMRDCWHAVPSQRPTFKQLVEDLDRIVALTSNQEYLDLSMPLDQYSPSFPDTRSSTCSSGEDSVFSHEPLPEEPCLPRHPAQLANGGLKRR
measurement.kind: pIC50
Notebook: values listed as pIC50 are -log10 of the concentration (mol/L).

Challenge: Query pIC50 on FGFR-1 (Homo sapiens, UniProt P11362) for O=C(Nc1ccc(-c2ccc(NC(=O)C3CC3)nc2)cc1)Nc1cccc(C(F)(F)F)c1 [CDAU-1]
Response given: 6.81

###

assayed.target: EphB4 (Homo sapiens, UniProt P54760)
Sequence (P54760 16-987): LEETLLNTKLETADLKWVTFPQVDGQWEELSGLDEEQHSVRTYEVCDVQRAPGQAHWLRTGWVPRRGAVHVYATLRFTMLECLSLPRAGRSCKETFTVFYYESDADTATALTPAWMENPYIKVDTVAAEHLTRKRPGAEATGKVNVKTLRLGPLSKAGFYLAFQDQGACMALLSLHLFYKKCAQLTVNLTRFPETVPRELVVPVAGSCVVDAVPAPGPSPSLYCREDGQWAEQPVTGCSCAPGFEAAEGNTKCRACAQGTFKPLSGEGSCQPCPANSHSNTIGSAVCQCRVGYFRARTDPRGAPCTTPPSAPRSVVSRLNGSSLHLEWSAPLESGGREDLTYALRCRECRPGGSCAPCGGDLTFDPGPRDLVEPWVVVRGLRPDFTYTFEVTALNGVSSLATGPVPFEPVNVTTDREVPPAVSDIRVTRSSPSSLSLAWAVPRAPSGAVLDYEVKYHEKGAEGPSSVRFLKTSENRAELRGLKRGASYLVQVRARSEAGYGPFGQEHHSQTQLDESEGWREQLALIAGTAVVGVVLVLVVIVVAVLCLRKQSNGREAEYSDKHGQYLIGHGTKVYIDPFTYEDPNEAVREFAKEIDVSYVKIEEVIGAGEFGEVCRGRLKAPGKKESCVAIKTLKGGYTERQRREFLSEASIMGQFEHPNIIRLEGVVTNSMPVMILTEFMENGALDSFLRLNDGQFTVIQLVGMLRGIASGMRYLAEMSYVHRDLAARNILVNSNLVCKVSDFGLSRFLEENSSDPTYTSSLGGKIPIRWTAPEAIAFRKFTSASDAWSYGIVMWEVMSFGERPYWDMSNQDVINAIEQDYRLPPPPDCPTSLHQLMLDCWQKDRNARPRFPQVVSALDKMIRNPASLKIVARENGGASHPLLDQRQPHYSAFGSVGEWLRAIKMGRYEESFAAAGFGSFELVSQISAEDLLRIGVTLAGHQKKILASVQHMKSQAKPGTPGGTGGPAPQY
run.description: ADP-Glo kinase inhibition assay, EphB4
Assay type: biochemical
study.conditions: Table 1, ATP 50 μM, read-out: EphB4 inhibitory activity (IC50)
# Lookup of reported IC50 keyed by entry

smiles.structure	IC50
O=C(Nc1ccc(-c2ccc(NC(=O)C3CC3)nc2)cc1)Nc1cccc(C(F)(F)F)c1	0.00534 µM

Challenge: I have this molecule here, O=C(Nc1ccc(OC(F)(F)F)cc1)Nc1ccc(-c2ccc(NC(=O)C3CC3)nc2)cc1 , and I need its recorded IC50.
Response given: > 1 µM

Challenge: Field entry: CC(C)(C)NC(=O)Nc1ccc(-c2ccc(NC(=O)C3CC3)nc2)cc1
Response given: > 1 µM

Challenge: Next molecule: CN(C)CCNC(=O)Nc1ccc(-c2ccc(NC(=O)C3CC3)nc2)cc1
Response given: > 1 µM

Challenge: Same read-out for CN(C)C(=O)Nc1ccc(-c2ccc(NC(=O)C3CC3)nc2)cc1 ?
Response given: > 1 µM

Challenge: Now consider O=C(Nc1ccc(-c2ccc(NC(=O)C3CC3)nc2)cc1)Nc1ccc(C(F)(F)F)c(C(F)(F)F)c1 and answer again.
Response given: > 1 µM
